B1: TRIM35 (parent)
chain: WEVQVSPTCPVCKDRASPADLRTN

# Variants of: B1
# PROTOCOL DESCRIPTION: protein stability index of a GFP-peptide fusion (GPS, HEK-293T) (PSI 1-6); higher = more stable;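 note: lentivirally expressed fusions sorted by FACS into six bins by GFP to DsRed ratio, PSI derived from sequencing read proportions per bin multiplied by bin number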
# RUN CONDITIONS: c terminus: a fixed tail appended
Classify as follows. Reported protein stability index greater than or equal to 3: T. Reported protein stability index below: F.

C9K    T

INPUT: State whether the measured protein stability index reaches 3, counting equality as reaching it, for L21W
OUTPUT: F

INPUT: Again, but for L21R
OUTPUT: F

INPUT: Consider next the variant N24Y in the same way.
OUTPUT: F

INPUT: Do the same for A16E please
OUTPUT: F

INPUT: Cool, now D14P
OUTPUT: F

INPUT: Try this variant too: V11T
OUTPUT: T

INPUT: Item: C12A
OUTPUT: T

INPUT: Now this one: P7S
OUTPUT: F

INPUT: Also need C12P , thanks.
OUTPUT: T

INPUT: Repeat for the following variant: A16F
OUTPUT: F

INPUT: What do you get for Q4V ?
OUTPUT: F

INPUT: Entry to check: L21Y
OUTPUT: F

INPUT: Another variant to check: T23F
OUTPUT: F

INPUT: Also, D20P please.
OUTPUT: F

INPUT: Repeat with T23A
OUTPUT: F

INPUT: Repeat with C9V
OUTPUT: T

INPUT: One more variant: E2F
OUTPUT: F
